Each recorded value in this set is attributed to the supplement of paper PMC10307832.

test system: ChaGo-K-1; experiment: relative viability (nuclei count vs DMSO), 5 days (fraction); higher = more cells survive; conditions: first compound 0.8 µM
// reported relative viability per item
Response field accepts a number only; no unit should be typed.

Here's what some known entries look like.
1) CCCCCCCCCCCC1=C(O)C(=O)C=C(O)C1=O [Embelin] + Nc1ncn([C@H]2C[C@H](O)[C@@H](CO)O2)c(=O)n1 [Decitabine] (partner 2 µM): 0.531
2) CCCCCCCCCCCC1=C(O)C(=O)C=C(O)C1=O [Embelin] + CC(=O)Nc1cccc(-n2c(=O)n(C3CC3)c(=O)c3c(Nc4ccc(I)cc4F)n(C)c(=O)c(C)c32)c1 [Trametinib] (partner 0.02 µM): 0.871
3) CCCCCCCCCCCC1=C(O)C(=O)C=C(O)C1=O [Embelin] + CC(=O)c1c(C)c2cnc(Nc3ccc(N4CCNCC4)cn3)nc2n(C2CCCC2)c1=O [Palbociclib] (partner 0.5 µM): 1.01
4) CCCCCCCCCCCC1=C(O)C(=O)C=C(O)C1=O [Embelin] + CCNC(=O)c1noc(-c2cc(C(C)C)c(O)cc2O)c1-c1ccc(CN2CCOCC2)cc1 [Luminespib] (partner 0.01 µM): 0.755
5) CCCCCCCCCCCC1=C(O)C(=O)C=C(O)C1=O [Embelin] + Cc1cc(Nc2cc(N3CCN(C)CC3)nc(Sc3ccc(NC(=O)C4CC4)cc3)n2)n[nH]1 [Tozasertib] (partner 0.1 µM): 0.239

As a next step, examine the molecule that follows.
Quick note, relative viability for CCCCCCCCCCCC1=C(O)C(=O)C=C(O)C1=O [Embelin] + Nc1nc2[nH]cc(CCc3ccc(C(=O)N[C@@H](CCC(=O)O)C(=O)O)cc3)c2c(=O)[nH]1 [Pemetrexed] (partner 0.2 µM) landed at 0.258
